Where do these numbers come from? They come from paper PMC4336329.

Listed next: entries and their corresponding hERG current change (%, negative = inhibition) at 10uM.
- MEASURED ON: human ether-à-go-go-related gene (hERG) potassium channel (human)
- Sequence (Q12809 whole entry, looked up): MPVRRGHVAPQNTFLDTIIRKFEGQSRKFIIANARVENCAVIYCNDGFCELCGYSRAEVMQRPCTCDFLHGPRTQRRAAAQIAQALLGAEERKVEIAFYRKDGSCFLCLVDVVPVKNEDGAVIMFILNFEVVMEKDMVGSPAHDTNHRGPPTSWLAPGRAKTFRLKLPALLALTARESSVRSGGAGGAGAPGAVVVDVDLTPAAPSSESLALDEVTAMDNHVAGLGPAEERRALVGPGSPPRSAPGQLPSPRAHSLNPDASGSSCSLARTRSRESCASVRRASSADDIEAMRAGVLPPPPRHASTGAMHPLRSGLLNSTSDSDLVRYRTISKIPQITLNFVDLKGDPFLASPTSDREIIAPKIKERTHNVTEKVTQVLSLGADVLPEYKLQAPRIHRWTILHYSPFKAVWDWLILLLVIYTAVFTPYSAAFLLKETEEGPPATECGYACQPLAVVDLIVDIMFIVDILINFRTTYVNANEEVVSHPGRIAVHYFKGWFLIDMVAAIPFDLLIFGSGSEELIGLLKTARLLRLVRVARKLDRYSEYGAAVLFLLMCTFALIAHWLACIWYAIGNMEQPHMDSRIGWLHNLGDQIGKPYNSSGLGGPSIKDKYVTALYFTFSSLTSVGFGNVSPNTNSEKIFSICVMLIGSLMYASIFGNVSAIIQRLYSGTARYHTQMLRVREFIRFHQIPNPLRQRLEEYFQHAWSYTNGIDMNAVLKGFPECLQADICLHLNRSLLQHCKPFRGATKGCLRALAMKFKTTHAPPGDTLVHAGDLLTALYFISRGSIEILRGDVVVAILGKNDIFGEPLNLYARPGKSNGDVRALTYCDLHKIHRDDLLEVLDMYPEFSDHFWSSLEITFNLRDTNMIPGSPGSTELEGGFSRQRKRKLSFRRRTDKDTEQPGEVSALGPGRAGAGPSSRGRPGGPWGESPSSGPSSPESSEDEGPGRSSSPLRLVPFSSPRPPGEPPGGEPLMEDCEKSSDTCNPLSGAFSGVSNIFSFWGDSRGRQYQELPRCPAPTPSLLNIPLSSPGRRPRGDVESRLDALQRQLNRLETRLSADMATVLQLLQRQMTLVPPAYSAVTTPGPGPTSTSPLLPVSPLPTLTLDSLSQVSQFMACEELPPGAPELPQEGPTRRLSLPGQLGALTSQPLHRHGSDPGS
- ASSAY: primary screen, population patch clamp on CHO cells stably expressing hERG; higher = less effect of the substance;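 also: peak tail current of the secondary pulse compared with the same well before compound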
Among all 310,000 compounds or so, about 14,000 (4.5%) showed an effect of 50% or more. The effect is printed as a negative number. The full list was thinned out, with strong results kept by preference.
QUANTITY: hERG current change (%, negative = inhibition) at 10uM

>>> print(df.to_string())
                                    molecule   result
 0  COc1cccc(SCc2noc(C(=O)NCC3CC3)c2C(=O)NCC2CC2)c1   -43.5%
 1  CC(C)Cn1c(N2CCN(C(=O)c3cccs3)CC2)nc2ccccc21   -73.6%
 2  O=C(c1ccc(Br)cc1)N1CCC(C(=O)N2CCN(Cc3ccccc3)CC2)CC1   -60.1%
 3  O=C1[C@H]2[C@@H](c3ccc(Cl)cc3)N3C(=O)N(c4cccc(Cl)c4)C(=O)[C@@]3(Cc3ccccc3)[C@H]2C(=O)N1C1CCCCC1   -2.02%
 4  CC(C)Cn1c(SCC(=O)N2CCN(S(=O)(=O)c3ccccc3)CC2)nc2ccccc21   0.539%
 5  CCOC(=O)CCN(c1ccccc1)S(=O)(=O)c1ccc(-c2ccc(=O)[nH]n2)s1   -29.3%
 6  Cc1ccccc1NC(=O)CN(C)S(=O)(=O)c1ccc(-c2ccc(=O)[nH]n2)s1   -78.6%
 7  COc1ncnc2c1ncn2CC1COC(C)(C)O1 (stereo not shown)    15.9%
 8  O=C(Cc1ccccc1)N[C@H](c1ccccc1)P(=O)(O)CO    8.47%
 9      COc1ccccc1NC(=S)N(Cc1cccnc1)Cc1ccco1   -33.6%
10  O=C(Nc1ccc(Cl)c(Cl)c1)N(Cc1cccnc1)Cc1ccco1   -73.7%
11  O=C(NC1CCN(Cc2ccccc2)CC1)C(NS(=O)(=O)c1cccc2nsnc12)c1ccccc1 (stereo not shown)   -44.6%
12    CC1CCN(c2nc3ccccc3n2CC(=O)c2ccccc2)CC1      56%
13  CC(C)Cn1c(N2CCN(C(=O)/C=C/c3ccccc3)CC2)nc2ccccc21   -69.1%
14    Cc1ccc(NC(=O)N(Cc2cccnc2)Cc2ccco2)cc1C   -27.2%
15   N#CCCN(Cc1cccnc1)C(=O)Nc1ccc(Cl)c(Cl)c1     -26%
16  CC(C)c1csc(CN2CCN(Cc3ccc(F)cc3)C(CCO)C2)n1 (stereo not shown)   -35.3%
17  Cc1oc(C(C)(C)C)cc1C(=O)N1CCN(c2ccc(C(F)(F)F)cn2)CC1   -5.33%
18           COCCSc1ccccc1C(=O)N1CCc2ccccc21    15.1%
19            Cn1c(=O)n(Cc2ccccc2F)c2ccccc21   -16.3%
20  Cc1cc(C(=O)Nc2ncn(Cc3ccc(F)cc3)n2)ccc1[N+](=O)[O-]   -51.7%
21        O=C(Nc1ccccc1)N(Cc1cccnc1)Cc1ccco1   -32.9%
22   Cc1cc(C(=O)Nc2ncn[nH]2)ccc1[N+](=O)[O-]    26.3%
23          O=C(Nc1cc2c(cc1Br)OCCO2)c1cccnc1    1.58%
24      S=C(Nc1ccccc1Cl)N(Cc1cccnc1)Cc1ccco1   -4.94%
25  CCc1ccccc1NC(=O)CN(C)S(=O)(=O)c1ccc(-c2ccc(=O)[nH]n2)s1   -74.8%
26  CCOC(=O)C1CCCN(C(=O)CSc2nccn2C)C1 (stereo not shown)  -0.344%
27  Cc1nc(NCCc2ccccc2)c(C#N)c(C)c1[N+](=O)[O-]     6.5%
28  O=C(Cn1c(N2CCN(C/C=C/c3ccccc3)CC2)nc2ccccc21)c1ccccc1   -51.2%
29  O=C(CC12CC3CC(CC(C3)C1)C2)Nc1cccc2ncccc12     -23%
30      CCc1ccccc1NC(=S)N(Cc1cccnc1)Cc1ccco1   -18.8%
31  COc1ccc(C(=O)N2CCC(C(=O)N3CCN(Cc4ccccc4)CC3)CC2)cc1   -9.58%
32    CCc1ccc(NC(=O)N(Cc2cccnc2)Cc2ccco2)cc1   -53.1%
33             O=C(C1CC1)N1CCN(Cc2ccccc2)CC1   -32.1%
34      Cc1ccccc1NC(=O)CN(C)S(=O)(=O)c1cccs1    2.52%
35    O=C(Nc1ccc(Cl)cc1)N(Cc1cccnc1)Cc1ccco1   -63.9%
36  O=C(CN(c1ccccc1)S(=O)(=O)c1ccccc1[N+](=O)[O-])Nc1ccccc1C(=O)N1CCOCC1    3.76%
37    CCc1ccc(NC(=S)N(Cc2cccnc2)Cc2ccco2)cc1   -17.2%
38  Cc1ccc(S(=O)(=O)N(C(=O)c2ccncc2)c2ccc(OC(=O)c3ccncc3)cc2)c(C)c1  -0.914%
39               CCCCCCNS(=O)(=O)c1ccc(Cl)s1   -12.9%
